Target: Low-density lipoprotein receptor (Homo sapiens) (UniProt P01130)
Sequence (P01130 whole entry): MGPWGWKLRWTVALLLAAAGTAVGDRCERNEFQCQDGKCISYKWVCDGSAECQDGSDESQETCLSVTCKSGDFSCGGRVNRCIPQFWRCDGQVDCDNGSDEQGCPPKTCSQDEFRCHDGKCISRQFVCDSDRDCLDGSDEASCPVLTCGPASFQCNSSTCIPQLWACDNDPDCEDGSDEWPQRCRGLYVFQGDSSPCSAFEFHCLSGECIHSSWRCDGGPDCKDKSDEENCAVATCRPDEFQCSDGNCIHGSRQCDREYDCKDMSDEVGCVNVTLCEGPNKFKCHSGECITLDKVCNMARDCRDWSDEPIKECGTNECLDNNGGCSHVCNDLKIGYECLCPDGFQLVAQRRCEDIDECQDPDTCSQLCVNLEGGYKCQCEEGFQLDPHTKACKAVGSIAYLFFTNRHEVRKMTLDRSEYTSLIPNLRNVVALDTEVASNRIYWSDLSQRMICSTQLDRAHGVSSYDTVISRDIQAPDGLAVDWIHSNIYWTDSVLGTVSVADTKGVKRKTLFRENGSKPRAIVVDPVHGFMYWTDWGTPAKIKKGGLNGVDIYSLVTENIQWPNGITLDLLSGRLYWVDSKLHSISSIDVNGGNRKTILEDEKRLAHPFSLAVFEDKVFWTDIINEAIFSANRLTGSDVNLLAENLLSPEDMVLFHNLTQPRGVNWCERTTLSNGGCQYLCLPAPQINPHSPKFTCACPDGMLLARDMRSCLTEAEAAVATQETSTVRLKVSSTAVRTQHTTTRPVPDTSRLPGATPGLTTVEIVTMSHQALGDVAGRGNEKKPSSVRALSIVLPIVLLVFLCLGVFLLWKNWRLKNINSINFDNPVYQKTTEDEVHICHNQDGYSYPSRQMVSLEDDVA
Test: Capability of derepressing the transcription of human Low density lipoprotein receptor promoter in the presence of 25-hydroxycholesterol in CHO cells by luciferase assay
Format: cell-based
Readout name: EC30 (µM)
Numeric answer only, unit µM assumed.

Previously resolved entries follow.
1) C=CC[C@H]1C2CC[C@H]3[C@@H]4CC[C@H]([C@H](C)CCCC(C)(C)O)[C@@]4(C)CC[C@@H]3[C@@]2(C)CC[C@H]1O (stereo partly drawn) :: 9.4
2) CC(C)CCC[C@@H](C)[C@H]1CC[C@H]2[C@@H]3CCC4[C@H](Cc5ccc(C(F)(F)F)cc5)[C@H](O)CC[C@]4(C)[C@H]3CC[C@]12C (stereo partly drawn) :: 12
3) C=CC[C@@H]1C[C@@]2(C)C(CC[C@H]3[C@@H]4CC[C@H]([C@H](C)CCCC(C)C)[C@@]4(C)CC[C@@H]32)C[C@@H]1O (stereo partly drawn) :: 41
4) CCCC[C@H]1C2CC[C@H]3[C@@H]4CC[C@H]([C@H](C)CCCC(C)C)[C@@]4(C)CC[C@@H]3[C@@]2(C)CC[C@H]1O (stereo partly drawn) :: 20
5) CC(C)CCC[C@@H](C)[C@H]1CC[C@H]2[C@@H]3CCC4[C@H](Cc5ccc(OC(F)(F)F)cc5)[C@H](O)CC[C@]4(C)[C@H]3CC[C@]12C (stereo partly drawn) :: 15

Output measured EC30 for this item: Cc1ccc(C[C@H]2C3CC[C@H]4[C@@H]5CC[C@H]([C@H](C)CCCC(C)C)[C@@]5(C)CC[C@@H]4[C@@]3(C)CC[C@H]2O)cc1 (stereo partly drawn)
35

---

Biological target: Low-density lipoprotein receptor (Homo sapiens) (UniProt P01130)
Experiment: Capability of derepressing the transcription of human Low density lipoprotein receptor promoter in the presence of 25-hydroxycholesterol in CHO cells by luciferase assay; NA= Not active within the test range 0-20 ug/mL
Type: cell-based
The source made the active and inactive calls. The calls are words filed in the database; no cut-off is given here.
Readout name: EC30

1) CC(C)CCC[C@@H](C)[C@H]1CC[C@H]2[C@@H]3CCC4[C@H](C/C=C\Cl)[C@H](O)CC[C@]4(C)[C@H]3CC[C@]12C (stereo partly specified) :: inactive
2) COc1ccc(C[C@H]2C3CC[C@H]4[C@@H]5CC[C@H]([C@H](C)CCCC(C)C)[C@@]5(C)CC[C@@H]4[C@@]3(C)CC[C@H]2O)cc1 (stereo partly specified) :: inactive
3) CC(C)=CC[C@H]1C2CC[C@H]3[C@@H]4CC[C@H]([C@H](C)CCCC(C)C)[C@@]4(C)CC[C@@H]3[C@@]2(C)CC[C@H]1O (stereo partly specified) :: inactive
4) CC(C)CCC[C@@H](C)[C@H]1CC[C@H]2[C@@H]3CCC4[C@H](Cc5ccc(O)cc5)[C@H](O)CC[C@]4(C)[C@H]3CC[C@]12C (stereo partly specified) :: inactive
5) C=C(Cl)C[C@H]1C2CC[C@H]3[C@@H]4CC[C@H]([C@H](C)CCCC(C)C)[C@@]4(C)CC[C@@H]3[C@@]2(C)CC[C@@H]1O (stereo partly specified) :: inactive

Please find the next molecule below.
Output measured EC30 for this item: C=CC[C@@H]1C[C@@]2(C)C(CC[C@H]3[C@@H]4CC[C@H]([C@H](C)CCCC(C)C)[C@@]4(C)CC[C@@H]32)[C@H](CC=C)[C@@H]1O (stereo partly specified)
inactive
